tested on: RAW-Dual (murine macrophage reporter line); experiment: NF-kB reporter (SEAP) activity fold change vs agonist alone; higher = enhanced NF-kB activity; details: modulator concentration 10 µM; agonist: MPLA […]
TEST_READOUT: NF-kB reporter
Numbers only.

COc1ccc(-n2c(=O)c3c4c(sc3n3c(SC)nnc23)CCCC4)cc1 ... 1.14
Cc1cccc(C)c1NC(=O)CC(C)c1ccccc1 (stereo unspecified) ... 1.2
CCC(=O)Nc1ccc(S(=O)(=O)NCC2CCN(c3ncc(F)cn3)CC2)c(C)c1 ... 1.04

State recorded NF-kB reporter for all listed molecules.
1. C=CCn1c(S)nnc1-c1cc(OC)c(OC)c(OC)c1
2. CC1c2cccc(O)c2C(=O)C2=C(O)C3(O)C(=O)C(C(N)=O)=C(O)C(N(C)C)C3C(O)C21.Cl (stereo unspecified)
3. CC(C)(C)CC(=O)Nc1nc2ccc(S(C)(=O)=O)cc2s1

Result:
1: 0.988; 2: 1.04; 3: 1.25

----------
Can you tell me NF-kB reporter for the items I'm about to list?
system: RAW-Dual (murine macrophage reporter line); assay: NF-kB reporter (SEAP) activity fold change vs agonist alone; higher = enhanced NF-kB activity; settings: modulator concentration 10 µM; agonist: LPS 0.1 ug/mL
One number for each entry.

Previously resolved entries follow.
CCN(CC)c1ccc(NC(=O)C(C)(C)C)cc1 ... 1.02
CC(=O)c1ccc(NC(=O)c2ccccc2C(=O)O)cc1 ... 1.14
CC(=O)O.CCN(CC)CC#CC1(O)CCCCC1 ... 0.981
CCCC1=NN(c2ccc([N+](=O)[O-])cc2)C(=O)C1=CNC1CC1 ... 1.15
CC(=O)c1c(C)c2cnc(Nc3ccc(N4CCNCC4)cn3)nc2n(C2CCCC2)c1=O.Cl ... 1.14

State recorded NF-kB reporter for all listed molecules.
1. O=C(NCCC(CCO)c1ccccc1)c1cccc(Cl)c1 (stereo unspecified)
2. CC(C)=CCC/C(C)=C/CC/C(C)=C/CSc1ccccc1C(=O)O

Result:
1: 1.02; 2: 0.929

State recorded NF-kB reporter for all listed molecules.
1. COc1ccc(N(CC(=O)N2CCc3ccccc3C2)S(C)(=O)=O)c(OC)c1
2. COc1ccc(CCN(C)CCCC(C#N)(c2ccc(OC)c(OC)c2)C(C)C)cc1OC.Cl (stereo unspecified)
3. Cc1ccc(C(=O)NC(=Cc2cccc3ccccc23)C(=O)N2CCCC2)cc1
4. COc1ccc(C=NNC(=O)CSc2nnc(-c3ccccc3)n2-c2ccccc2)cc1OC

Result:
1: 1.09; 2: 1.02; 3: 1.03; 4: 1.14

----------
Can you tell me NF-kB reporter for the items I'm about to list?
tested on: RAW-Dual (murine macrophage reporter line); experiment: NF-kB reporter (SEAP) activity fold change vs agonist alone; higher = enhanced NF-kB activity; settings: modulator concentration 10 µM; agonist: MPLA […]

Previously resolved entries follow.
COc1cc(C=NN2C(=O)c3cccc4cccc(c34)C2=O)cc(Br)c1OC ... 0.967
CC(NC(=O)C(=O)Nc1ccc(F)cc1)c1ccccc1 (stereo not given) ... 0.939
CCn1c(C=Nn2cnnc2)nc2ccccc21 ... 0.943

State recorded NF-kB reporter for all listed molecules.
1. O=C(OC(=Cc1nccn1Cc1ccc(Cl)cc1)c1ccccc1)c1ccccc1
2. CCC1OC(=O)C(C)C(OC2CC(C)(OC)C(O)C(C)O2)C(C)C(OC2OC(C)CC(N(C)C)C2O)C(C)(O)CC(C)CN(C)C(C)C(O)C1(C)O (stereo not given)

Result:
1: 0.394; 2: 1.19

State recorded NF-kB reporter for all listed molecules.
1. CS(=O)(=O)N(CC(=O)Nc1ccccc1Cl)c1ccc(Cl)c(C(F)(F)F)c1
2. Cc1ccc2nc(C)c(NC(=O)c3ccc4ccccc4n3)c(=O)n2c1
3. CC(C)c1ccccc1NS(=O)(=O)c1ccccc1
4. NC(=O)Cn1c(COc2ccccc2Cl)nc2ccccc21

Result:
1. 0.874
2. 0.823
3. 1.05
4. 0.96

Query: Consider the molecule `CCOc1cc(C=C2SC(=S)N(CCS(=O)(=O)O)C2=O)ccc1O` and give its recorded NF-kB reporter.
Result: 0.951

----------
Can you tell me NF-kB reporter for the items I'm about to list?
system: RAW-Dual (murine macrophage reporter line); experiment: NF-kB reporter (SEAP) activity fold change vs agonist alone; higher = enhanced NF-kB activity; conditions: modulator concentration 10 µM; agonist: MPLA […]

Previously resolved entries follow.
CCN1C(=O)C(=Cc2c[nH]c3ccccc23)SC1=S ... 0.868
COc1cc2nc(N(C)CCCNC(=O)C3CCCO3)nc(N)c2cc1OC.Cl (configuration not stated) ... 0.958
S=C(NC12CC3CC(CC(C3)C1)C2)N1CCOCC1 ... 1.07
N#Cc1nc(-c2ccc(COc3ccccc3)o2)oc1N1CCCCC1 ... 1.12
O=S(=O)(NCCn1ccn2nccc12)c1ccccc1Br ... 1.02

State recorded NF-kB reporter for all listed molecules.
1. CSc1nnc(CSc2nc(C)cc(C)n2)n1-c1cccc(C(F)(F)F)c1
2. COc1ccc(N2CCN(C(=O)Cc3csc(NC(=O)Nc4ccccc4OC)n3)CC2)cc1

Result:
1. 1.17
2. 0.884

State recorded NF-kB reporter for all listed molecules.
1. Cl.Cl.OCCN1CCN(CC/C=C2/c3ccccc3Sc3ccc(C(F)(F)F)cc32)CC1
2. CC(=O)OCC(=O)NCCCOc1cccc(CN2CCCCC2)c1.Cl
3. CC(C)(C)c1cc(CCC(=O)NN)cc(C(C)(C)C)c1O
4. CN1CCN(c2nc(C3=C(c4c[nH]c5ccccc45)C(=O)NC3=O)c3ccccc3n2)CC1
5. Cc1ccc(C2(O)C=CC(C)(C(Cl)(Cl)Cl)C=C2)cc1 (configuration not stated)
6. CCN(C=Nc1sc2c(c1C#N)CC(C)(C)NC2(C)C)CC
7. Nc1nc(Cl)nc2c1ncn2[C@H]1C[C@H](O)[C@@H](CO)O1

Result:
1. 1.04
2. 0.924
3. 0.926
4. 1.21
5. 1.02
6. 0.901
7. 1.65

----------
system: RAW-Dual (murine macrophage reporter line); experiment: NF-kB reporter (SEAP) activity fold change vs agonist alone; higher = enhanced NF-kB activity; details: modulator concentration 10 µM; agonist: CpG ODN 1826 0.5 ug/mL
TEST_READOUT: NF-kB reporter
Give bare numbers.

COc1ccc(N2CC(C(=O)NCc3ccccc3C(F)(F)F)CC2=O)cc1 (configuration not stated) ... 1
CC[C@@]1(O)C(=O)OCc2c1cc1n(c2=O)Cc2cc3c(CN(C)C)c(O)ccc3nc2-1.Cl ... 2.27
O=C(/C=C/C=C/c1ccc2c(c1)OCO2)N1CCCCC1 ... 0.974
O=C(NCC1(c2ccc(F)cc2)CCOCC1)c1cnc2ccccc2n1 ... 1.01
CCCNS(=O)(=O)Nc1ncnc(OCCOc2ncc(Br)cn2)c1-c1ccc(Br)cc1 ... 0.775

State recorded NF-kB reporter for all listed molecules.
1. Cc1cc(C(=O)Nc2ccccc2S(C)(=O)=O)no1
2. N#Cc1c(N=Cc2ccc(Br)cc2)sc2c1CCCC2
3. Clc1cnc(NC2CCN(c3ncnc4c3CCCC4)CC2)nc1
4. CCOc1ccc(C(=O)NCc2cccnc2)cc1Br

Result:
1: 1.17; 2: 0.782; 3: 0.969; 4: 1.23

State recorded NF-kB reporter for all listed molecules.
1. COc1ccc(C=NNC(=O)c2ccc(CN3CCOCC3)cc2)cc1[N+](=O)[O-]
2. O=C(Nc1cc(C(F)(F)F)cc(C(F)(F)F)c1)c1ccco1
3. c1cncc(CSc2ccc(-c3ccncc3)nn2)c1

Result:
1. 1.01
2. 0.816
3. 0.532

----------
system: RAW-Dual (murine macrophage reporter line); assay: IRF reporter (Lucia luciferase) activity fold change vs agonist alone; higher = enhanced IRF activity; details: modulator concentration 10 µM; agonist: LPS 0.1 ug/mL
Can you tell me IRF reporter for the items I'm about to list?
One number for each entry.

COc1ccc2oc(=O)c(-c3csc(NC(=O)C=CC(=O)O)n3)cc2c1 ... 0.938
CCCCCc1ccc(-c2ccc(-c3noc(-c4ccc(CCCC)cc4)n3)cc2)cc1 ... 1.32
Clc1nc(N2CCOCC2)nc(N(c2ccccc2)c2ccccc2)n1 ... 1.41
CC1(C)OC(=O)C=CC2(C)C1CC(O)C1(C)C2CCC2(C)C(c3ccoc3)OC(=O)C3OC321 (stereo not given) ... 1.22

Now let's try a different one.
Query: Jot down IRF reporter (RAW-Dual (murine macrophage reporter line)) of `CCN(CC)c1ccc(C=NNC(=O)c2ccccc2)c(O)c1` .
Result: 2.18

----------
system: RAW-Dual (murine macrophage reporter line); experiment: viability score (confluency relative to resting cells, overnight) (fraction); higher = more viable, active = viable (0.7 or more); conditions: modulator concentration 10 µM
Label yes when viability score is strictly below 1; otherwise label no.

Cn1nc(CNS(=O)(=O)c2cccc(C(F)(F)F)c2)c2c1CCCC2 ... yes
COc1cc2nc(N3CCN(C(=O)C4COc5ccccc5O4)CC3)nc(N)c2cc1OC.CS(=O)(=O)O (centres undefined) ... yes
CCCn1c(C(O)(c2ccccc2)c2ccccc2)nc2ccccc21 ... yes
Cc1ccc(S(=O)(=O)O)cc1.NC(=O)c1cccc2cn(-c3ccc([C@@H]4CCCNC4)cc3)nc12 ... yes
O=C1CCCc2nn(-c3ccccc3)nc21 ... no

Query: Identify whether the compound `CC[C@@]1(O)C(=O)OCc2c1cc1n(c2=O)Cc2cc3c(CN(C)C)c(O)ccc3nc2-1.Cl` records viability score below 1.
Result: yes

Query: Identify whether the compound `CCCCc1oc2ccccc2c1C(=O)c1cc(I)c(OCCN(CC)CC)c(I)c1` records viability score below 1.
Result: no
